- ASSAYED_SYSTEM: Cytochrome P450 3A4 (Homo sapiens)
- TEST_DETAILS: qHTS Assay for Inhibitors and Substrates of Cytochrome P450 3A4 (AID 884); note: nearly all actives have a fitted effect of over 50% in size; note: potency is the fitted concentration of half-maximal effect
- MEASUREMENT_SETUP: recombinant CYP3A4, Luciferin-PPXE luminescence; series mostly up to 57.1 µM
Inconclusive results are not listed. Active and inactive are the calls of the source. Calls come from the whole dose curve; as a rule, active = well fitted inhibition curve with a large enough effect; inconclusive = small, poorly fitted or top-dose-only effect; inactive = no such curve, though single readings can be large or run the other way.
EXPERIMENTAL_READOUT: Potency

As a guide, the following entries are already answered.
O=c1[nH]c(=O)n([C@@H]2O[C@H](CO)[C@@H](O)[C@H]2O)cc1F    inactive
CC(=O)OC1CC[C@]2(C)C(CC(OC(C)=O)[C@]3(C)C2CC[C@@]2(C)C(c4ccoc4)OC(=O)C4O[C@]432)C1(C)C (some centres undefined)    inactive
CC(C)C(C)/C=C/C(C)C1CCC2C3=CC=C4CC(O)CCC4(C)C3CCC21C (centres undefined)    inactive
CC1CC[C@@]23CCC4(C)[C@@]5(C)CCC6C(C)(C)C(O)CC[C@@]6(C)C5C=C[C@@]4(OC2=O)C3C1C (some centres undefined)    5.01 µM (active)

Please find the next molecule below.
Short answer on Cytochrome P450 3A4 (Homo sapiens) for CC(=O)OCC(=O)[C@@]1(O)CCC2C3CCC4=CC(=O)CC[C@]4(C)C3C(O)C[C@]21C (some centres undefined) , Potency: inactive

###

- Test system: AS120
- TEST_DETAILS: qHTS profiling for inhibitors of Plasmodium falciparum proliferation (AID 504749);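 note: 0% = DMSO vehicle and full inhibition = artemisinin control; nearly all actives have a fitted effect of over 60% in size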
- MEASUREMENT_SETUP: P. falciparum in erythrocytes, SYBR Green DNA, 72 h; series mostly up to 12.8 µM
Records with an inconclusive call do not appear. The source made the active and inactive calls. Calls follow the shape of the dose curve; as a rule, active = well fitted inhibition curve with a large enough effect; inconclusive = small, poorly fitted or top-dose-only effect; inactive = flat fitted curve, though single readings scatter.
EXPERIMENTAL_READOUT: outcome

CO[C@]1(NC(=O)[C@H](C(=O)O)c2ccc(O)cc2)C(=O)N2C(C(=O)O)=C(CSc3nnnn3C)CO[C@H]21    inactive
CCC(C)(C)C(=O)O[C@@H]1C[C@H](C)C=C2C=C[C@H](C)[C@@H](CC[C@H]3C[C@@H](O)CC(=O)O3)[C@H]21    inactive
COc1ccc([C@@H]2CC(=O)c3c(O)cc(O[C@H]4O[C@@H](CO[C@H]5O[C@@H](C)[C@@H](O)[C@@H](O)[C@@H]5O)[C@@H](O)[C@@H](O)[C@@H]4O)cc3O2)cc1O    inactive

###

- TEST_DETAILS: qHTS drug screen for cell cycle checkpoint inhibitors in PARPi-resistant BRCA-mutant ovarian cancer cell lines. (AID 1963452)
- MEASUREMENT_SETUP: PEO1/OlaR viability, CellTiter-Glo luminescence, 96 h; hits give low values
Where a SMILES comes first, the peptide text is derived from it. [ ]: non-standard residue; d: D form. Dip = N[C@H](C(=O)O)C(c1ccccc1)c1ccccc1
Entry class follows Z-AUC: category 1 (below -0.5), category 2 (-0.5 to below 0.9), category 3 (0.9 or more)

Before answering, review these 4 worked examples.
NCCCC[C@H](NC(=O)[C@@H](NC(=O)[C@H](Cc1c[nH]c2ccccc12)NC(=O)[C@H](CCCCN)NC(=O)[C@H](CCCCN)NC(=O)[C@H](Cc1c[nH]c2ccccc12)NC(=O)[C@H](Cc1c[nH]c2ccccc12)NC(=O)[C@H](CCCCN)NC(=O)[C@@H](N)CCCCN)C(c1ccccc1)c1ccccc1)C(N)=O (H-KKWWKKW[Dip]K-NH2)    category 3
CC1=C2C[C@H]3[C@@H](CC[C@@H]4C[C@H](NS(C)(=O)=O)CC[C@@]43C)[C@@H]2CC[C@@]2(C1)O[C@@H]1C[C@H](C)CN[C@H]1[C@H]2C    category 2
CO[C@H]1C[C@@H]2CC[C@@H](C)[C@@](O)(O2)C(=O)C(=O)N2CCCC[C@H]2C(=O)O[C@H]([C@H](C)C[C@@H]2CC[C@@H](OCCO)[C@H](OC)C2)CC(=O)[C@H](C)/C=C(/C)[C@@H](O)[C@@H](OC)C(=O)[C@H](C)C[C@H](C)/C=C\C=CC=C1C    category 2
COc1ccc(-c2ccc3c(N4CCOC[C@@H]4C)nc(N4CCOC[C@@H]4C)nc3n2)cc1CO    category 3

Tag the class for CCCCCCCOc1ccc(CCC(N)(CO)CO)cc1C(F)(F)F category 1

Tag the class for CCC(=O)NC[C@H](Cc1ccc(OCCc2nc(-c3ccccc3)oc2C)cc1)N/C(C)=C\C(=O)c1ccc(C(F)(F)F)cc1 category 2

Reference source for all entries: PubChem BioAssay (NCATS)
